MTT IC50 [µM] PC-3 values, listed per item
# Target Under Test: polo-like kinase 1 (PLK1), wild type, in cells (UniProt P53350 2-603, limits assumed)
# Sequence (P53350 2-603 limits assumed): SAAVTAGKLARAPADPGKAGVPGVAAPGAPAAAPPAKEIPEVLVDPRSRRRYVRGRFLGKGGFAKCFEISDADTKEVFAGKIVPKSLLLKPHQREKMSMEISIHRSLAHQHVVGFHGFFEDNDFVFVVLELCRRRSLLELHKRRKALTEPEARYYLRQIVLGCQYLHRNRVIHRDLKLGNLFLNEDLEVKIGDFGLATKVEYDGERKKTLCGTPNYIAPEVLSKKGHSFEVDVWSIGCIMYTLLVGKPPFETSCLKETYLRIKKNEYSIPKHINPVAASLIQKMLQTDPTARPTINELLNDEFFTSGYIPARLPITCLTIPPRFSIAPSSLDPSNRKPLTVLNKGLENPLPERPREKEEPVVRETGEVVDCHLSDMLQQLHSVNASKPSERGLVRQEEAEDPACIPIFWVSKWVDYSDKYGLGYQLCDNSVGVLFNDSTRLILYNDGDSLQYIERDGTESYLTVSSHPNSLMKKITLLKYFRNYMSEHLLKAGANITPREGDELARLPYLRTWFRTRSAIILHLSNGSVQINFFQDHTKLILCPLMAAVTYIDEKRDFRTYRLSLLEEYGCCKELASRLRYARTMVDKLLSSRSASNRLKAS
# Protocol Details: cell-based or functional assay
Square brackets hold non-standard residues; d marks the D form. Ends that are not written are not given here. * marks the point of attachment. Benzoyl(4-octyl) = CCCCCCCCc1ccc(C(=O)*)cc1; pT = C[C@@H](OP(=O)(O)O)[C@H](N)C(=O)O
Recorded Metric: MTT IC50 [µM] PC-3

Binder	Recorded Metric	Result
S[pT]AI (also: 4-nonyl R1 group on C-terminus, 'C-terminal amidated nonyl', terminal chemistry unclear) [Compound No. 18, 4-nonyl S[pT]AI (SEQ ID NO: 13), R1 group on the C-terminal]	MTT IC50 [µM] PC-3	27 µM
S[pT]AI (also: 4-octyl R1 group on C-terminus, 'C-terminal amidated octyl', terminal chemistry unclear) [Compound No. 17, 4-octyl S[pT]AI (SEQ ID NO: 13), R1 group on the C-terminal]	MTT IC50 [µM] PC-3	41.5 µM
{Benzoyl(4-octyl)}-S[pT]PL [Compound No. 16, 4-octyl S[pT]PL (SEQ ID NO: 14)]	MTT IC50 [µM] PC-3	103 µM
{Benzoyl(4-octyl)}-S[pT]AI [Compound No. 15, 4-octylbenzamide N-capped S[pT]AI (SEQ ID NO: 13)]	MTT IC50 [µM] PC-3	55.7 µM
